# Test system: EFO-21 (Ovarian Carcinoma)
# protocolSummary: combination Emax (second highest fraction inhibited in the dose matrix, 72 h); higher = more inhibition; extreme values may be limits of the assay
observedProperty: combination Emax
Answer with a number only.

Please list combination Emax recorded for the compound CN(CCO)CC[C@H](CSc1ccccc1)Nc1ccc(S(=O)(=O)NC(=O)c2ccc(N3CCC([C@@H](O)c4ccccc4-c4ccc(Cl)cc4)CC3)cc2)cc1S(=O)(=O)C(F)(F)F [AZD4320] + C[C@@H](Nc1cc(F)cc(F)c1)c1cc(C(=O)N(C)C)cc2c(=O)cc(N3CCOCC3)oc12 [AZD8186] (first compound max 1 µM, 7x7, partner max 3 µM) 0.381

Please list combination Emax recorded for the compound CCc1c2c(nc3ccc(O)cc13)-c1cc3c(c(=O)n1C2)COC(=O)[C@]3(O)CC [SN-38] + CN(C)CCCOc1ccc(-c2ccc3ncc4c(c3c2)n(C2CCOCC2)c(=O)n4C)cn1 [AZD0156] (first compound max 0.3 µM, 7x7, partner max 1 µM) 0.529

Please list combination Emax recorded for the compound C=CCn1c(=O)c2cnc(Nc3ccc(N4CCN(C)CC4)cc3)nc2n1-c1cccc(C(C)(C)O)n1 [AZD1775] + Nc1ccn([C@@H]2O[C@H](CO)[C@@H](O)C2(F)F)c(=O)n1 [Gemcitabine] (first compound max 1 µM, partner max 0.3 µM) 0.482
